The values you see were collected from PubChem BioAssay AID1578.

Form field: inhibition (one value per entry).
- measurement.protocol: inhibition of NOD1-driven NF-kB reporter – cell-based, luminescence, uHTS, primary screen (AID 1578);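 note: HEK-293T reporter cells stimulated with the NOD1 agonist gamma-tri-DAP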
- condition.summary: NOD1-driven NF-kB luciferase reporter cells, at 4 µM, hits give high values
Out of some 290,000 compounds screened, about 3,000 (1%) were called active. This excerpt belongs to a sample that is enriched for actives.
Answer in %, number only, no unit symbol.

# inhibition lookup, item `CC1CCN(S(=O)(=O)c2ccc(NN=C(C#N)C#N)cc2)CC1`
-29.8

# inhibition lookup, item `CCCCOC(=O)C1=C(N)OC2=C(C(=O)CCC2)[C@]12C(=O)N(C)c1ccccc12`
2.2

---

- measurement.protocol: inhibition of NOD1-driven NF-kB reporter – cell-based, luminescence, uHTS, primary screen (AID 1578);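 note: HEK-293T reporter cells stimulated with the NOD1 agonist gamma-tri-DAP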
- condition.summary: NOD1-driven NF-kB luciferase reporter cells, at 4 µM, hits give high values
Among all 290,000 compounds or so, about 3,000 (1%) were called active. The entries come from a sample that favours actives as a whole.
Form field: inhibition (one value per entry).
Answer in %, number only, no unit symbol.

# count of solved cases: 3
COc1cc(C(=O)N/N=C/C23CC[C@@H](O)CC2(O)CC[C@@H]2[C@@H]3CCC3(C)C(C4=CC(=O)OC4)CCC23O)ccc1O (stereo not given in full)	-5.4
CCCCn1c(O)c(/C=C2/C=CC=N2)c(=O)[nH]c1=O	-7.3
O=C1CC(c2ccccc2)CC(O)=C1C=NCCN1CCN(C(=O)Cc2ccccc2)CC1 (stereo not given)	8.5

# inhibition lookup, item CC1CCC(C(C)C)C(OP(N)(=O)c2ccccc2)C1 (stereo not given)
12.7

# inhibition lookup, item CC12CC[C@H]3[C@@H](CCC4(O)C[C@H](O)CCC34/C=N/NC(=O)c3ccccc3F)C1(O)CCC2C1=CC(=O)OC1 (stereo not given in full)
-9.8

# inhibition lookup, item COc1cccc(C(=O)C2CN(C)CC2c2ccc(Cl)cc2)c1 (stereo not given)
-33.4

# inhibition lookup, item `COc1ccc(OC)c(NP(=O)(Oc2ccccc2)Oc2ccccc2)c1`
-6.6

# inhibition lookup, item `Cc1cc(C)n2nc(C)[n+](C)c2n1`
-17.4

# inhibition lookup, item `CN(C)C(=O)Oc1ccc2c(c1)O/C(=C\c1cccc([N+](=O)[O-])c1)C2=O`
-9.1

# inhibition lookup, item CC12CC[C@H]3[C@@H](CCC4(O)C[C@H](O)CCC34/C=N/NC(=O)c3ccccc3O)C1(O)CCC2C1=CC(=O)OC1 (stereo not given in full)
4.5

# inhibition lookup, item `O=Cc1cn(Cc2c(F)cccc2Cl)c2ccccc12`
66

# inhibition lookup, item `Cc1c(N=Nc2c(O)n(-c3ccc(Br)cc3)c(=O)[nH]c2=O)c(=O)n(-c2ccccc2)n1C`
-1.1

# inhibition lookup, item CC1CCC(C(C)C)C(OC(=O)COC(=O)c2ccccc2N)C1 (stereo not given)
79.2

# inhibition lookup, item `O=C(Nc1ccc(Cl)cc1C(=O)c1ccccc1)c1ccc(Br)o1`
37.5

# inhibition lookup, item O=c1[nH]c(=S)n(C2CC2)c(O)c1C=NCC1CCCO1 (stereo not given)
-13.4

# inhibition lookup, item `CC(C)[C@]12O[C@H]1[C@@H]1O[C@]13[C@]1(O[C@H]1C[C@H]1C4=C(CC[C@@]13C)C(=O)OC4)[C@@H]2O`
107

# inhibition lookup, item CC(=O)c1c(O)n(-c2cccc(Cl)c2)c(=O)[nH]c1=O (tested in a mixture with another compound)
1.2

# inhibition lookup, item `CCC(=NCCCn1ccnc1)c1c(O)n(-c2ccc(OC)cc2)c(=O)[nH]c1=O`
-8.6

# inhibition lookup, item `O=Cc1cn(Cc2ccc(F)cc2)c2ccccc12`
6.2

# inhibition lookup, item `C=CCn1c(O)c(/C=C2/C=CC=N2)c(=O)[nH]c1=O`
-27.6
